Listed below are compounds with Ki for Protein kinase C alpha type (Homo sapiens, UniProt P17252), each taken from published literature.

Answered cases to consult:
O=c1[nH]c2cnc(NCC3CCNC3)nc2n1Cc1ccccc1F (centres unmarked); > 10 µM
CC(C)C(O)(CF)C1CN(c2ccc(F)c(-c3n[nH]c4ncccc34)n2)CCN1 (centres unmarked); > 1.25 µM
C=C(F)c1cc(-c2n[nH]c3ncccc23)nc(N2CCNCC2)c1; > 1.25 µM
CC(C)C(C)(O)C1CN(c2ccc(F)c(-c3n[nH]c4ncccc34)n2)CCN1 (centres unmarked); < 2.8 µM
CC(C)C(O)[C@@H]1CCCN(c2ccc(F)c(-c3n[nH]c4ncccc34)n2)C1 (some centres unmarked); > 1.25 µM
CC(C)C1OC(=O)N2CCN(c3ccc(C(F)(F)F)c(C(=O)c4cccnc4N)n3)CC12 (centres unmarked); > 2.8 µM
Fc1ccccc1CNc1ncc2nc(-c3ccccc3Cl)n(CCC3CCNCC3)c2n1; > 10 µM

Field: next compound
Checklist item: Ki tested on Protein kinase C alpha type (Homo sapiens, UniProt P17252), entry CCC1(CN)CN(c2ccc(C(F)(F)F)c(-c3n[nH]c4ncccc34)n2)CCO1 (centres unmarked) , value? > 1.25 µM
